Tested on: Cryptococcus gattii species complex
Test: Antifungal activity against Cryptococcus gattii L135/03 after 72 hrs by microdilution method
Format: functional, Cryptococcus bacillisporus
Conditions: L135/03, 72 h
Peptide text beside a SMILES is read from it. * marks the point of attachment. X1 = CCN(CC)c1ccc2cc(-n3cc(CCC(=O)*)nn3)c(=O)oc2c1; Pent4ynoyl = C#CCCC(=O)*
This listing pairs compounds with measured MIC.

- Compound: "C#CCCC(=O)N[C@@H](CCCNC(=N)N)C(=O)N[C@@H](C)C(=O)N[C@@H](CCCCN)C(=O)N[C@@H](CCCNC(=N)N)C(=O)N[C@@H](CCCNC(=N)N)C(=O)N[C@@H](CCSC)C(=O)N[C@@H](CCC(N)=O)C(=O)N[C@@H](Cc1ccc(O)cc1)C(N)=O (Pent4ynoyl-RAKRRMQY-NH2)"
  MIC: "> 220 µM"
- Compound: "CCN(CC)c1ccc2cc(-n3cc(CCCO)nn3)c(=O)oc2c1"
  MIC: "> 750 µM"
- Compound: "CCN(CC)c1ccc2cc(-n3cc(CCC(=O)N[C@@H](CCCNC(=N)N)C(=O)N[C@@H](C)C(=O)N[C@@H](CCCCN)C(=O)N[C@@H](CCCNC(=N)N)C(=O)N[C@@H](CCCNC(=N)N)C(=O)N[C@@H](CCSC)C(=O)N[C@@H](CCC(N)=O)C(=O)N[C@@H](Cc4ccc(O)cc4)C(N)=O)nn3)c(=O)oc2c1 (X1-RAKRRMQY-NH2)"
  MIC: "40 µM"

The compound identified as CCN(CC)c1ccc2cc(N=[N+]=[N-])c(=O)oc2c1 registered its MIC at > 990 µM

The compound identified as OC(Cn1cncn1)(Cn1cncn1)c1ccc(F)cc1F registered its MIC at 50 µM

FYI, the data here is from ChEMBL document CHEMBL3425414.
